Every entry's value here was drawn from patent US20200131142A1.

Please provide measured pEC50 for the entries that follow.
Biological target: hFXR (Homo sapiens, UniProt Q96RI1)
Sequence (Q96RI1 1-486): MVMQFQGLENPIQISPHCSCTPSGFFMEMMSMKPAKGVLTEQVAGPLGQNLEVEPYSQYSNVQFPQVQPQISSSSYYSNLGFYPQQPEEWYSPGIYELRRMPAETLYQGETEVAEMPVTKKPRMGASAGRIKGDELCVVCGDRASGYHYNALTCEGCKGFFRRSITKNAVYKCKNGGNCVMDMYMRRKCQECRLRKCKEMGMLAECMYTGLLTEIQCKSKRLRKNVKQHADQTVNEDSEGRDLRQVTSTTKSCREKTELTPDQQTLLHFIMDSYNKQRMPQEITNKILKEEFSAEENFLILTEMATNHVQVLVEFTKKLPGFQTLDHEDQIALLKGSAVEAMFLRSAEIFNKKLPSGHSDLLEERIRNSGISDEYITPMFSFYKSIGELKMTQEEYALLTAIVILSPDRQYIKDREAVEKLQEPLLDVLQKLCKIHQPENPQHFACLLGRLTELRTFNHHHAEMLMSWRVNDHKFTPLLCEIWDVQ
Sequence (P19793 1-462 partner): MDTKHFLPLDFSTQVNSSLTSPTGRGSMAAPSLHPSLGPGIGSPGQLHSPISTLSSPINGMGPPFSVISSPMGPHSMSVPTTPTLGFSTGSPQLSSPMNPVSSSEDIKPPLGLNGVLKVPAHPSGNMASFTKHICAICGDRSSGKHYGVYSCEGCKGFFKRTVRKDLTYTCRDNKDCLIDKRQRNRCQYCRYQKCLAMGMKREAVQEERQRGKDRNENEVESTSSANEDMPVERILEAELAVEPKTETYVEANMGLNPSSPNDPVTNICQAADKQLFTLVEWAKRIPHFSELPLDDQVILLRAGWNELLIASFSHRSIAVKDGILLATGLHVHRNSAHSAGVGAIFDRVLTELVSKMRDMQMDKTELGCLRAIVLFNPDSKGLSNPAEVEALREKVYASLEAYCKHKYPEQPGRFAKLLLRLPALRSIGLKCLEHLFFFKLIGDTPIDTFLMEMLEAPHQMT
Assay: In Vitro FXR Assay (TK): hFXR/hRXR TK-ECRE-luc reporter in transfected CV-1 cells
Conditions: 18 hrs incubation, luminescence, compounds with maximum efficacy <25% of the Fexarmine control classified as '+'
pEC50: −log10 of the molar value.

Recorded result, COc1ccc([C@H]2CC[C@H](CN(c3cccc(-c4cnc(OCCO)s4)c3)C(=O)[C@H]3CC[C@H](O)CC3)CC2)cc1C , pEC50: ≥ 6.60

Recorded result, COc1ccc([C@H]2CC[C@H](CN(c3cccc(-c4cnc(SC)s4)c3)C(=O)[C@H]3CC[C@H](O)CC3)CC2)cc1C , pEC50: ≥ 6.60

Recorded result, COc1ccc([C@H]2CC[C@H](CN(c3cccc(-c4csc(C)n4)c3)C(=O)[C@H]3CC[C@H](O)CC3)CC2)cc1C , pEC50: 6.00 to 6.60

Recorded result, CCc1ncc(-c2cccc(N(C[C@H]3CC[C@H](c4ccc(OC)c(C)c4)CC3)C(=O)[C@H]3CC[C@H](O)CC3)c2)s1 , pEC50: ≥ 6.60

Recorded result, COc1ccc([C@H]2CC[C@H](CN(c3cccc(-c4cnc(C5CCC5)s4)c3)C(=O)[C@H]3CC[C@H](O)CC3)CC2)cc1C , pEC50: ≥ 6.60

Recorded result, COc1ccc([C@H]2CC[C@H](CN(c3cccc(-c4cnc(OC(C)C)s4)c3)C(=O)[C@H]3CC[C@H](O)CC3)CC2)cc1C , pEC50: ≥ 6.60

Recorded result, COc1ccc([C@H]2CC[C@H](CN(c3cccc(-c4cnc(N5CCCCC5)s4)c3)C(=O)[C@H]3CC[C@H](O)CC3)CC2)cc1C , pEC50: ≥ 6.60

Recorded result, COc1ccc([C@H]2CC[C@H](CN(c3cccc(C#Cc4cscn4)c3)C(=O)[C@H]3CC[C@H](O)CC3)CC2)cc1C , pEC50: ≥ 6.60

Recorded result, COc1ncc(-c2cccc(N(C[C@H]3CC[C@H](c4ccc(OC)c(C)c4)CC3)C(=O)[C@H]3CC[C@H](N)CC3)c2)s1 , pEC50: ≤ 6.00

Recorded result, COc1ccc([C@H]2CC[C@H](CN(c3cccc(-c4cnc(C5CC5)s4)c3)C(=O)[C@H]3CC[C@H](O)CC3)CC2)cc1S(C)(=O)=O , pEC50: ≥ 6.60

Recorded result, COc1ccc([C@H]2CC[C@H](CN(c3cccc(-c4cnc(-c5ccccc5)s4)c3)C(=O)[C@H]3CC[C@H](O)CC3)CC2)cc1C , pEC50: ≥ 6.60

Recorded result, COc1ncc(-c2cccc(N(C[C@H]3CC[C@H](c4ccc(OC)c(C#N)c4)CC3)C(=O)[C@H]3CC[C@H](O)CC3)c2)s1 , pEC50: ≥ 6.60
